Biological target: Lanosterol 14-alpha demethylase (Mus musculus)
Sequence (Q8K0C4 whole entry): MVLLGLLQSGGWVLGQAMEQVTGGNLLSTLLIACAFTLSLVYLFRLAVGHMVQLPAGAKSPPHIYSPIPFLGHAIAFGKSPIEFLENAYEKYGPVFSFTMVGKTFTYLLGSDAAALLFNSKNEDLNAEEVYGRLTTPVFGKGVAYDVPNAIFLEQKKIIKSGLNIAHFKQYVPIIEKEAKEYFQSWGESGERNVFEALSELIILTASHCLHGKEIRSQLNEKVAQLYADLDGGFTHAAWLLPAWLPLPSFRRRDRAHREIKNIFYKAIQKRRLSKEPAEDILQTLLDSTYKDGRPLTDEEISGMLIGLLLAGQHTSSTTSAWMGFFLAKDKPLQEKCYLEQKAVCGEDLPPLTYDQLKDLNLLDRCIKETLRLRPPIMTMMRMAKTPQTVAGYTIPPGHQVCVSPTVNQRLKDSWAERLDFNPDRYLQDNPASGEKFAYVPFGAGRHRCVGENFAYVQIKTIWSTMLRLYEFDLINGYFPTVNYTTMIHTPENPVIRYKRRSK
Assay: Inhibition of CYP51 in Dhcr7-deficient mouse Neuro2a cells assessed as decrease in 7-DHC levels at 1 uM by LC-MS/GC-MS analysis
Format: cell-based
READOUT_TYPE: inhibition (INH)

Value wanted: inhibition (INH) (Lanosterol 14-alpha demethylase (Mus musculus)) of entry Clc1ccc(COC(Cn2ccnc2)c2ccc(Cl)cc2Cl)cc1 (centres undefined)
Active

Could you share what inhibition (INH) was measured for `Clc1ccccc1C(c1ccccc1)(c1ccccc1)n1ccnc1` , tested on Lanosterol 14-alpha demethylase (Mus musculus)?
Active

Checklist item: inhibition (INH) tested on Lanosterol 14-alpha demethylase (Mus musculus), entry c1ccc(-c2ccc(C(c3ccccc3)n3ccnc3)cc2)cc1 (centres undefined) , value?
Active

Query for Lanosterol 14-alpha demethylase (Mus musculus): what inhibition (INH) does the record show for Clc1ccc(COC(Cn2ccnc2)c2ccc(Cl)cc2Cl)c(Cl)c1 (centres undefined) ?
Active

###

assay: Cytotoxicity against human SLOS fibroblasts at 5 uM after 5 days by Cell Titer assay; assay type: cell-based; settings: fibroblast, 120 h
READOUT_TYPE: Activity

# input compound: CC/C(=C(\c1ccccc1)c1ccc(OCCN(C)C)cc1)c1ccccc1 [TAMOXIFEN] ; wanted: its Activity
Toxic

Query (compound): Cc1c(-c2ccc(O)cc2)n(Cc2ccc(OCCN3CCCCCC3)cc2)c2ccc(O)cc12 [BAZEDOXIFENE] ; field requested: Activity
Toxic

// returns reported Activity for input O=C(c1ccc(OCCN2CCCCC2)cc1)c1c(-c2ccc(O)cc2)sc2cc(O)ccc12 [RALOXIFENE]
Toxic

###

biological target: Delta(24)-sterol reductase (Mus musculus) (UniProt Q8VCH6); test: Inhibition of DR24 in Dhcr7-deficient mouse Neuro2a cells assessed as decrease in 7-DHC levels at 1 uM by LC-MS/GC-MS analysis; assay type: cell-based
Sequence (Q8VCH6 whole entry): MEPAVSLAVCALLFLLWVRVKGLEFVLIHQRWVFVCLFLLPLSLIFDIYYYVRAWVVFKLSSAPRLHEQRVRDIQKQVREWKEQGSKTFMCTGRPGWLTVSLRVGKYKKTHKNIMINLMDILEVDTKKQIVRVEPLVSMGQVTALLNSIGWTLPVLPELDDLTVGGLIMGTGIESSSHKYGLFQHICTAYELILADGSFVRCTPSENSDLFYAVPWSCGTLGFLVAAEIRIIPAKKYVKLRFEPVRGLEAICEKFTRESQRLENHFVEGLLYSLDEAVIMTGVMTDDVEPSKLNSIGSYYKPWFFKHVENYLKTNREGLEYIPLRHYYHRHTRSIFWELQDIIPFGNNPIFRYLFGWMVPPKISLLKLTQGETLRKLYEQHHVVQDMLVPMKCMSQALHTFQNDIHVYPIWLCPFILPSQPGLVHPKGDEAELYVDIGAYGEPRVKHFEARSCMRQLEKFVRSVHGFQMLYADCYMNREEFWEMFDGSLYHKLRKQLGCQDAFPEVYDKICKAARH
The source made the active and inactive calls. The rule behind the calls is not given here.
READOUT_TYPE: inhibition

Record request: inhibition value, item CCc1c(C)[nH]c2c1C(=O)C(CN1CCOCC1)CC2 (stereo not given)
Active

Suppose we examine the compound `CC/C(=C(\c1ccccc1)c1ccc(OCCN(C)C)cc1)c1ccccc1` ; what inhibition value has been reported?
Active

Find the recorded inhibition belonging to `Oc1ccc2c(c1)CC[C@H](c1ccccc1)[C@@H]2c1ccc(OCCN2CCCC2)cc1` and report it.
Active

Entry under review: `OCCN1CCN(CCCN2c3ccccc3Sc3ccc(Cl)cc32)CC1` . Reported inhibition?
Active

New cases:
Given the entry `CN1CCN(CCCN2c3ccccc3Sc3ccc(C(F)(F)F)cc32)CC1` , report its measured inhibition.
Active

Where do these numbers come from? They come from ChEMBL document CHEMBL3774374.
